Molecular target: T1, human Trop-1 (EpCAM) (human, UniProt P16422 24-265, limits assumed)
T1 sequence (looked up): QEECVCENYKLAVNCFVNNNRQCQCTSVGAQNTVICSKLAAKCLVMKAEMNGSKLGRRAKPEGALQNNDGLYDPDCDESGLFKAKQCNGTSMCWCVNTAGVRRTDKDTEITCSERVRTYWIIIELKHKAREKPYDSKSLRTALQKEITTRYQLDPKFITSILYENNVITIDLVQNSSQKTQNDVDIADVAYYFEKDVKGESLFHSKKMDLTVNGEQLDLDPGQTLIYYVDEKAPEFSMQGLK
Experiment: ELISA, similar to Table 24

{"binder": "10A9 (antibody, V domains shown, Rabbit-derived clone; LEM construct: VH + rabbit IgG CH1 + human IgG1 CH2-CH3) VH: QSLEESGGDLVQPGASLTLTCKASGFDLNNYAMLWVRQAPGKGLEWIGCIYISGGTTYFASWATGRFAISKTSSTTVTLQMTSLTAADTATYFCARDDGTTSYYLNLWGPGTLVTVSS VL: YDMTQTPASVSAAVGGTVTIKCQASEDIYSLLAWYQQKPGQPPKLLIYGASNLESGVPSRFKGSGSGTEYTLTISDLECDDAATYYCQQAYTIGNIDNAFGGGTEVVVK", "binding result": "no binding"}
{"binder": "10A9-2 (antibody, V domains shown) VH: QSLEESGGDLVQPGASLTLTCKASGFDLNNYAMLWVRQAPGKGLEWIGSIYISGGTTYFASWATGRFAISKTSSTTVTLQMTSLTAADTATYFCARDDGTTSYYLNLWGPGTLVTVSS VL: YDMTQTPASVSAAVGGTVTIKCQASEDIYSLLAWYQQKPGQPPKLLIYGASNLESGVPSRFKGSGSGTEYTLTISDLEADDAATYYCQQAYTIGNIDNAFGGGTEVVVK", "binding result": "no binding"}
{"binder": "63H3 (antibody, V domains shown, Rabbit-derived clone; LEM construct: VH + rabbit IgG CH1 + human IgG1 CH2-CH3) VH: QEQLKESGGGLVQPGGSLKLSCKASGFDFNSYGVSWVRQAPGKGLEWIAYIYPAFHNAYYANWVNGRFTISSDNAQNTVDLQLNSLTAADTATYFCARDAGGTDYNYNLWGPGTLVTVSS VL: DVVMTQTPASVEVAVGGTVTLKCQASEDIESYSAWYQQKPGQPPNLLIYEASKLASGVSSRFSGSGYGTEFTLTISGVECADAATYYCQQALTIGNVDNPFGGGSEVVVR", "binding result": "no binding"}
